- measured on: I2A
- assay text: Receptor binding, I2A
pKi: −log10 of the molar value.
value kind: pKi

Some compounds with known pKi results, for comparison:
- smiles representation: "Cc1c(NC2=NCCN2)ccc2c1NCCN2"
  pKi: 4.00
- smiles representation: "Cc1c(NC2=NCCN2)ccc2c1NCCO2"
  pKi: 4.00
- smiles representation: "COc1ccc(Nc2ncc[nH]2)c(C)c1"
  pKi: 5.21
- smiles representation: "Cc1c(Nc2ncc[nH]2)ccc2nccnc12"
  pKi: 5.20
- smiles representation: "Cc1ccccc1NC1=NCCN1"
  pKi: 5.92

P: Cc1c(Nc2ncc[nH]2)ccc2c1NCCO2
Q: COc1c(C(C)(C)C)cc(C)c(Nc2ncc[nH]2)c1C
R: Brc1c(NC2=NCCN2)ccc2c1NCCN2
Data request: Rank order required: pKi, descending. Record the ranking as a list of labels in the requested order.
Data returned: R, P, Q
(R: 5.12, P: 4.57, Q: 4.00)
